Consider the following compounds; for each one, report its TGI.
tested on: MALME-3M melanoma; experiment: NCI tumour cell line growth inhibition, 48 h
Return type: number; implicit unit µM.

Consider CC1OC(OC2C(O)CC(OC3C(O)CC(OC4CCC5(C)C(CCC6C5CC(O)C5(C)C(C7=CC(=O)OC7)CCC65O)C4)OC3C)OC2C)CC(O)C1O (stereo unspecified) . Its measured TGI is 0.16

Consider O=C(c1ccccc1)N(C(=O)c1ccccc1)c1nc(SCc2ccccc2)ns1 . Its measured TGI is 74.8

Consider Oc1cccc2ccc(N/N=C/c3cc(CN4CCOCC4)c(O)c4ncccc34)nc12 . Its measured TGI is 1.89

Consider OC(C#Cc1ccccc1)(c1ccccc1)c1ccccc1 . Its measured TGI is 60.2

Consider O=S(=O)(/C=C/C(=C/c1ccccc1)S(=O)(=O)c1ccccc1)c1ccccc1 . Its measured TGI is 3.3

Consider CCCCCCNC(=O)Oc1ccc(/C(=C(\C)c2ccc(Cl)cc2)c2ccc(OCCN3CCCCC3)cc2)cc1 . Its measured TGI is 7.7

Consider Oc1[nH]c2ccccc2c1N=NC(=S)Nc1ccccc1Cl . Its measured TGI is 21.8

Consider CCN1CCC(O)(/C=C/c2ccccc2C)C(C(=O)/C=C/c2ccccc2C)C1 (stereo unspecified) . Its measured TGI is 16.3

Consider CN(CCNCc1ccccn1)CCNCc1ccccn1 . Its measured TGI is 3.94

Consider CCCCc1ccc(-n2sc3ncc(C)cc3c2=O)cc1 . Its measured TGI is 90.1

Consider CCc1cccc(C)c1NC(=O)c1sc2nc3c(cc2c1N)C(=O)CCC3 . Its measured TGI is 98.8

Consider CCCCCCCCCCCCC(Br)C(=O)NCC(N)=O (stereo unspecified) . Its measured TGI is 28

Consider COc1ccc(N(CC(=O)NCCC[Te]c2ccccc2)C(=O)CNC(=O)OC(C)(C)C)cc1 . Its measured TGI is 32.8

Consider O=C(/C=C/c1ccc(Oc2cc(C(=O)/C=C/c3ccc(O)cc3)c(O)cc2O)cc1)c1ccc(O)cc1O . Its measured TGI is 26.6

Consider C=CNC(=O)NC(=O)CSc1nnc(-c2ccccc2NC(=O)C(F)(F)F)c(=O)[nH]1 . Its measured TGI is 28.8

Consider Oc1c(I)cc(I)c2cccnc12 . Its measured TGI is 27.6

Consider c1ccc(-c2nc(N3CCNCC3)c3oc(-c4ccccc4)nc3n2)cc1 . Its measured TGI is 3.17

Consider CC(C)(O)CNc1nc(Nc2ccnc(C(F)(F)F)c2)nc(-c2cccc(C(F)(F)F)n2)n1 . Its measured TGI is 43.3

Consider CCC1OC2C(CC=C(C)C)=C3OC(C)(O)C(C)(CC)C(OC(C)=O)C3=C3OC(=O)C=C1C32 (stereo unspecified) . Its measured TGI is 49.3

Consider O=[N+]([O-])c1ccc(N2CCOCC2)c2c1no[n+]2[O-] . Its measured TGI is 4.28

* * *

system: SW-620 colon; test: NCI tumour cell line growth inhibition, 48 h
Measurement kind: TGI (µM)
Return type: number; implicit unit µM.

Consider COc1cc2nc(-c3cc(F)ccc3O)nc(N[C@@H]3CNC[C@H]3C(C)(C)O)c2cc1OC . Its measured TGI is 3.39

Consider Oc1[nH]c2ccccc2c1N=NC(=S)Nc1ccccc1Cl . Its measured TGI is 40.3
